assay.comment: Selectivity ratio of cytotoxicity against African green monkey Vero cells assessed as reduction in cell viability measured after 72 hrs by resazurin assay to antiproliferative activity against human MDA-MB-231 cells assessed as reduction in cell viability measured after 48 hrs by MTS assay
Type: toxicity, cell-based
test.settings: Vero cells versus MDA-MB-231 cells
result.type: selectivity ratio

# smiles.entry, result
records = [
    ("CC1(C)C[C@H](NC(=O)CCl)[C@]23CC[C@@H](NC(=O)CCl)[C@@](C)(CC[C@@H]12)C3", 25),
]

Looking for the measured selectivity ratio of CC1(C)C[C@H](NC(=O)CCl)[C@]23CCC[C@@](C)(CC[C@@H]12)C3 , can you help?
33

Just for reference, ChEMBL document CHEMBL4699388 is where these values come from.
